Assay read-out MIC; system under study: Proteus mirabilis IFO3849.
Field format: number, assumed µg/mL, no unit text.

Solved entries (count: 3):
CCn1cc(C(=O)O)c(=O)c2cc(F)c(N3CCNC(C)C3)cc21 (centres unmarked) = 0.39
CCn1cc(C(=O)O)c(=O)c2cc(F)c(N3CCNCC3)cc21 [Reference Drug, norfloxacin, reference compound] = 0.1
CCn1cc(C(=O)O)c(=O)c2cc(F)c(N3CC(C)NC(C)C3)c(F)c21 (centres unmarked) = 1.56

Q. Write down measured MIC (Proteus mirabilis IFO3849) for this compound. CC1CN(c2c(F)cc3c(=O)c(C(=O)O)cn(CCF)c3c2F)CCN1 (centres unmarked)
A. 0.39

Q. Give MIC only, for CCn1cc(C(=O)O)c(=O)c2cc(F)c(N3CCNC(C)C3)c(F)c21 (centres unmarked) , using Proteus mirabilis IFO3849 data.
A. 0.2
